- System: Respiratory Syncytial Virus (RSV)
- protocol-text: microbe, parasite or virus in culture
- Type: cell-based
- condition-parameters: human respiratory syncytial virus, BSC-1; BS-C-1 cells (African Green Monkey kidney cells); plaque/foci reduction; read-out: Anti-respiratory syncytial virus BS-C-1 cells IC₅₀
Exercise: for every item that follows, state its recorded IC50.

COc1nc(N)nc2c1ncn2[C@@H]1O[C@H](CO)[C@@H](O)[C@H]1F : 6.3 µM

Next compound, please.
Query: Hi! What's the reported IC50 for Nc1nc2c(ncn2[C@@H]2O[C@H](CO)[C@@H](O)[C@H]2F)c(=O)[nH]1 on Respiratory Syncytial Virus (RSV)?
Reply: 26.2 µM
